tested on: skin of hairless mice; test: topical skin irritation test in hairless mice; assay type: in vivo, female hairless mice (Crl:SKH1-hrBR); details: 1000 nmole, once daily days 1 through 5, mean±SD
This listing pairs molecules with measured Cutaneous Toxicity Score (Blackjack Score).
Field format: numeric only.

CC1(C)CCC(=O)c2ccc(C#Cc3ccc(CC(=O)O)c(F)c3)cc21	5

Ask: // map CN(C1CC1)C1CCC(C)(C)c2cc(C#Cc3ccc(CC(=O)O)c(F)c3)ccc21 (stereo not drawn) to recorded Cutaneous Toxicity Score (Blackjack Score) (system: skin of hairless mice)
Reply: 10

Ask: Value wanted: Cutaneous Toxicity Score (Blackjack Score) (skin of hairless mice) of entry `CC1(C)CCC(=O)c2ccc(C#Cc3ccc(CC(=O)O)cc3)cc21`
Reply: 6
